Answer each item with its documented Phage binding ELISA signal, Anti-PSMA Fab with PSMA antigen.
# EXPERIMENTAL_SYSTEM: T1, Anti-PSMA Fab
# T1 construct: also called 006 PSMA Fab
# ASSAY_COMMENT: clonal phage ELISA on captured PSMA Fab, wells pre-incubated with PSMA antigen as competitor, anti-M13-HRP detection;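 also: crude clonal phage supernatants added without washing after the PSMA preincubation, comparison wells received blocking buffer alone without PSMA, bound phage read after washing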

• LKVECRPLWMCEGF (Clone of the Peptide-180 optimisation library, tested as clonal phage supernatant) [Phage-3787] = 0.075
• MERSCIPDWMCLGF (Clone of the Peptide-180 optimisation library, tested as clonal phage supernatant) [Phage-3796] = 0.0541
• VHMACTPWWMCVGF (Clone of the Peptide-180 optimisation library, tested as clonal phage supernatant) [Phage-3791] = 0.0962

Would you kindly look at the next entry?
Phage binding ELISA signal, Anti-PSMA Fab with PSMA antigen for TVKQCVPEWMCVML (Clone of the Peptide-180 optimisation library, tested as clonal phage supernatant) [Phage-3794] is 0.104
